The measurements presented in this section are drawn from ChEMBL document CHEMBL1128299.

Field: Selectivity. Provide a value for each of the compounds that follow.
target: Opioid receptors; delta & kappa (Homo sapiens) (UniProt P41145+P41143); assay: Selectivity ratio as the ratio of IC50 ratio of delta receptor to that of kappa receptor.; assay type: functional
Sequence (P41143 whole entry, looked up): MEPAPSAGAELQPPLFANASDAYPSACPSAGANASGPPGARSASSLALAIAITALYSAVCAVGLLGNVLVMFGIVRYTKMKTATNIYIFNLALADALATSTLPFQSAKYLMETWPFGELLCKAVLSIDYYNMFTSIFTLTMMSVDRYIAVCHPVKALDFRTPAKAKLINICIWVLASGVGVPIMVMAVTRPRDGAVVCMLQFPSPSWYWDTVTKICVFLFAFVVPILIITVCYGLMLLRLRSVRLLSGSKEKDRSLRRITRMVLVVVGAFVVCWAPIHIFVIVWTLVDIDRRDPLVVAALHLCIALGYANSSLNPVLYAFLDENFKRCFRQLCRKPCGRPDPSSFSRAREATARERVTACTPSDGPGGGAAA
Sequence (P41145 whole entry, looked up): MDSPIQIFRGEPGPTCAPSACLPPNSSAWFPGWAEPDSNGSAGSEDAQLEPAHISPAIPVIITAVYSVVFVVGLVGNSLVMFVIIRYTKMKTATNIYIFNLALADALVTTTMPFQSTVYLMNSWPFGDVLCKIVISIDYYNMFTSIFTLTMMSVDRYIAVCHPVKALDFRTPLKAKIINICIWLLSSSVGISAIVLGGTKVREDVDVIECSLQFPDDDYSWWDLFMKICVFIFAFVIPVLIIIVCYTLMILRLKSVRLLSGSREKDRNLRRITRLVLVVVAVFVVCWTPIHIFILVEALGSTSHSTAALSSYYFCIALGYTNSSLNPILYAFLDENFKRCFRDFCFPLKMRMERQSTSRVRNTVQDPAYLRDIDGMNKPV
Reply with the value as a number alone.

INPUT: Bench note: what Selectivity did CC(=O)Nc1ccc(Cn2c3c(c4ccccc42)C[C@@]2(O)C4Cc5ccc(O)c6c5C2(CCN4CC2CC2)[C@H]3O6)cc1 (some centres not stated) show?
OUTPUT: 31

INPUT: Requested read-out: Selectivity. Entry: CC(=O)Nc1cccc(Cn2c3c(c4ccccc42)C[C@@]2(O)C4Cc5ccc(O)c6c5C2(CCN4CC2CC2)[C@H]3O6)c1 (some centres not stated)
OUTPUT: 31

INPUT: Given the compound Oc1ccc2c3c1O[C@H]1c4c(c5ccccc5n4Cc4ccccc4)C[C@@]4(O)C(C2)N(CC2CC2)CCC314 (some centres not stated) , what is its reported Selectivity?
OUTPUT: 208

INPUT: Could you tell me which Selectivity is on file for Oc1ccc2c3c1O[C@H]1c4c(c5ccccc5n4Cc4ccc(N=C=S)cc4)C[C@@]4(O)C(C2)N(CC2CC2)CCC314 (some centres not stated) ?
OUTPUT: 18

INPUT: Bench note: what Selectivity did Oc1ccc2c3c1O[C@H]1c4c(c5ccccc5n4Cc4ccccc4N=C=S)C[C@@]4(O)C(C2)N(CC2CC2)CCC314 (some centres not stated) show?
OUTPUT: 45

INPUT: Need Selectivity of O=C(CI)Nc1ccccc1Cn1c2c(c3ccccc31)C[C@@]1(O)C3Cc4ccc(O)c5c4C1(CCN3CC1CC1)[C@H]2O5 (some centres not stated) , thanks.
OUTPUT: 51

INPUT: Query: Selectivity; subject: O=C(CBr)Nc1cccc(Cn2c3c(c4ccccc42)C[C@@]2(O)C4Cc5ccc(O)c6c5C2(CCN4CC2CC2)[C@H]3O6)c1 (some centres not stated)
OUTPUT: 511
